self-cleavage: recorded values
B1: CPEB3 Ribozyme (parent)
chain: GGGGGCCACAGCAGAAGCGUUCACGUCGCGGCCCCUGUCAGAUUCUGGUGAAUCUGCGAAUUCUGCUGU

Variants of: B1
test: self-cleavage, relative activity (ratio to wild type); higher = more cleavage; co-transcriptional
measuredMetric: self-cleavage

[[record]]
sequencecontent = "GGGGGCCACAGCACAAGCGUUCACGUUGCGGCCCCUGUCAGAUUCUGGUGAAUCUGCGAAUUCUGCUGU"
reportedresult = 0.14

[[record]]
sequencecontent = "GGGUGCCACAGCAGAAGCGUUCAGGUCGCGGCCCCUGUCAGAUUCUGGUGAAUCUGCGAAUUCUGCUGU"
reportedresult = 0.0638

[[record]]
sequencecontent = "GGGGGCCACAGCAGGAGCCUUCACGUCGCGGCCCCUGUCAGAUUCUGGUGAAUCUGCGAAUUCUGCUGU"
reportedresult = 0.15

[[record]]
sequencecontent = "GGGCGCCAGAGCAGAAGCGUUCACGUCGCGGCCCCUGUCAGAUUCUGGUGAAUCUGCGAAUUCUGCUGU"
reportedresult = 0.899

[[record]]
sequencecontent = "GGGGGCCACAGCAGAAGCGUUCACGUCGCGGCCCCUGUAAGAUUCUGGUGAAUCUGCGACUUCUGCUGU"
reportedresult = 0.286

[[record]]
sequencecontent = "GGGGGCCACAGCAGAAGCGUUUACGUCGCGGCCCCUGUCAGAUCCUGGUGAAUCUGCGAAUUCUGCUGU"
reportedresult = 0.31

[[record]]
sequencecontent = "GGGGGCCACAGCAAAAGCGUUCACGUCGCGGCCCCUGUCAGAUUCUGGUGAAUCUACGAAUUCUGCUGU"
reportedresult = 0.466

[[record]]
sequencecontent = "GGGGGCCACAGCUGAAGCCUUCACGUCGCGGCCCCUGUCAGAUUCUGGUGAAUCUGCGAAUUCUGCUGU"
reportedresult = 0.133

[[record]]
sequencecontent = "GGGGGUCACAGCAGAAGCGUUCACGUCGCGGCCCCUGUCAGAUUCUGGUGAAUCUGCGAAUUCUGCUCU"
reportedresult = 0.999

[[record]]
sequencecontent = "GGGGGCCACAGCAGAAACGUUCACGUCGCGGCCCCUGUCAGAUUCUAGUGAAUCUGCGAAUUCUGCUGU"
reportedresult = 0.541

[[record]]
sequencecontent = "AGGGGCCACAGCAGAGGCGUUCACGUCGCGGCCCCUGUCAGAUUCUGGUGAAUCUGCGAAUUCUGCUGU"
reportedresult = 0.0235

[[record]]
sequencecontent = "GGGGGCCACAGCAGAAGCGUUCACGUCGCGGCCCCUGUCAGAUUCUGGUGAAUCUGCGAAUACUGCUGU"
reportedresult = 0.957

[[record]]
sequencecontent = "GGGGGCCACAGCAGAAGCGUUCACGUCGCGGCCCCUGUCAGAUUCAGGUGAAUCUGCGAAUUCGGCUGU"
reportedresult = 0.964

[[record]]
sequencecontent = "GGCGGCCACAGCAGAAGCGUUCACGUCGCGGCCCCUGUCAGAUUCUUGUGAAUCUGCGAAUUCUGCUGU"
reportedresult = 0.0876

[[record]]
sequencecontent = "GGGGGCCACAGCAGAAGCGUUCACGUCGCGGCCCUUGUCAGAUUCUGGUAAAUCUGCGAAUUCUGCUGU"
reportedresult = 0.974

[[record]]
sequencecontent = "GGAGGCCACAGCAGAAGCGUUCACGUCGCGGCCCCUGUCAGAUUCUGAUGAAUCUGCGAAUUCUGCUGU"
reportedresult = 0.69

[[record]]
sequencecontent = "GGGGGCCACAGCAGAAGCGUUCACGUCGCGGCCCCUGUCAGAUUCUGGUGAGUAUGCGAAUUCUGCUGU"
reportedresult = 0.931

[[record]]
sequencecontent = "GGGGGCCACAGAAGAAGCGUUCACGUCGCGGCCCUUGUCAGAUUCUGGUGAAUCUGCGAAUUCUGCUGU"
reportedresult = 0.624

[[record]]
sequencecontent = "GGGGGCCACAGCAGAAGCGUUCACGACGCGGCCCCCGUCAGAUUCUGGUGAAUCUGCGAAUUCUGCUGU"
reportedresult = 0.403

[[record]]
sequencecontent = "GGGGGCCACAGCAGAAGCGUUCACGUCGCAGCCCCUGUCAGAUUCUGGUGAAUCUGUGAAUUCUGCUGU"
reportedresult = 0.272

[[record]]
sequencecontent = "GGGGGCCACAGCAGAAGCGUUCACGUCGCGGCCCCUGUCAGAUUCUGGUGAAUCUCCGUAUUCUGCUGU"
reportedresult = 0.392

[[record]]
sequencecontent = "GGGGGCCACAGCAGAAGCGUUCUCGUCGCGGCCCCUGUCAGAUUCUGGUGAAUCCGCGAAUUCUGCUGU"
reportedresult = 0.953

[[record]]
sequencecontent = "GGGGGCCACAGCAGAAGCGUUCACGUCGCGGCCCCUGUCCGAUUCUGGUGAAUCCGCGAAUUCUGCUGU"
reportedresult = 0.515

[[record]]
sequencecontent = "GGGGGCCACAGCAGAAGCGUUCACGUCGCGGCCCCUGCCAGAUUCUGGUGAAUCUGCGUAUUCUGCUGU"
reportedresult = 0.316

[[record]]
sequencecontent = "GGGGGCCACAGCAGGAGCGUUCACGUCGAGGCCCCUGUCAGAUUCUGGUGAAUCUGCGAAUUCUGCUGU"
reportedresult = 0.636

[[record]]
sequencecontent = "GGGGGCCGCAGCAGAAGCGUUCACGUCGCGGCCCCUGUCAGAUUCUGGUGAAUCUGCGAAUUGUGCUGU"
reportedresult = 0.164

[[record]]
sequencecontent = "GGGGGCCACAGCAGAAGCGUUCACGUCGCGGCCCCUGUCAGAUUCUGGUGAAUAUGCGAAUUCUGAUGU"
reportedresult = 0.45

[[record]]
sequencecontent = "GGGGGCCACAGCAGAAGCGUUCACGUCGCGGGCCCUGUCAGAUUCUGGUGCAUCUGCGAAUUCUGCUGU"
reportedresult = 0.353

[[record]]
sequencecontent = "GGGGGCCGCAGCAGAAGCGUUCACGUCGCUGCCCCUGUCAGAUUCUGGUGAAUCUGCGAAUUCUGCUGU"
reportedresult = 0.335

[[record]]
sequencecontent = "GGGGGCCACAGCAGAAGCGUUCACGUCGGGGCCCCUGUCAGAUUCUGGGGAAUCUGCGAAUUCUGCUGU"
reportedresult = 0.65

[[record]]
sequencecontent = "GGGGGCCACAGCAGAAGCGAUCACGUCGCGGCCCCUGUCAGAUUCUGGUGAAUCAGCGAAUUCUGCUGU"
reportedresult = 0.237

[[record]]
sequencecontent = "GGGGGCCACAGCAGAAGCGUUCACAUCGCGGCCCCUGUCAGAUUCUGGUGAAUCUGCGAAUUCUGCUGA"
reportedresult = 0.295

[[record]]
sequencecontent = "GAGGGCCACAGCAGAAGCGUUCACGUCGCGGCCCCUGUCAUAUUCUGGUGAAUCUGCGAAUUCUGCUGU"
reportedresult = 0.0833

[[record]]
sequencecontent = "GGGGGCCGCAGCAGAAGCUUUCACGUCGCGGCCCCUGUCAGAUUCUGGUGAAUCUGCGAAUUCUGCUGU"
reportedresult = 0.0891

[[record]]
sequencecontent = "GGGGGCCACAGCAGAAGCGUUCACGUCGCGGCCCCUGUCAGAUUCUGGUGAAUCUUCGAAUUAUGCUGU"
reportedresult = 0.51

[[record]]
sequencecontent = "GUGGGCCACAGCAGAAGCGUUCACGUCGCGGGCCCUGUCAGAUUCUGGUGAAUCUGCGAAUUCUGCUGU"
reportedresult = 0.0483

[[record]]
sequencecontent = "GGGGGCCACAGCAGAAGCGUUCACGUCGCGGCCUCUGUCAGAUUCUGGUGAAUCUGCGAAUUCUGCUGG"
reportedresult = 1.04

[[record]]
sequencecontent = "GGGGGCCACAGCAGAAGCGUUCAGGUCGCGGCCCCUGUCAGAUUCUGGUGAAUCUGCGAAUUGUGCUGU"
reportedresult = 0.199

[[record]]
sequencecontent = "GGGGGCCACAGCAGAAGCGUUCACCUCGCGGCCCCUGUAAGAUUCUGGUGAAUCUGCGAAUUCUGCUGU"
reportedresult = 0.197

[[record]]
sequencecontent = "GGGGGCCACAGCUGAAGCGUUCACGUCGCAGCCCCUGUCAGAUUCUGGUGAAUCUGCGAAUUCUGCUGU"
reportedresult = 0.487

[[record]]
sequencecontent = "GGGGGCGAGAGCAGAAGCGUUCACGUCGCGGCCCCUGUCAGAUUCUGGUGAAUCUGCGAAUUCUGCUGU"
reportedresult = 0.966

[[record]]
sequencecontent = "GGGGGCCACAGCAGAAGCGUUCACGUCGCGUCCCCUGUCAGAUUCUGGUGAAUCUGCGAAUUCUGCUGA"
reportedresult = 0.876

[[record]]
sequencecontent = "GGGGGCCACAGCAGUAGCGUUCACGUCGCCGCCCCUGUCAGAUUCUGGUGAAUCUGCGAAUUCUGCUGU"
reportedresult = 0.287

[[record]]
sequencecontent = "GGGGGCCACAGCAGAAGCGUUCACUUCGCGCCCCCUGUCAGAUUCUGGUGAAUCUGCGAAUUCUGCUGU"
reportedresult = 0.191

[[record]]
sequencecontent = "GGGGGCCACAGCAGAAGCGUUCACGUCGCGGCCCCUGUCAGAUGCUGGUGAAUCUGCGAAUUCUGCUGA"
reportedresult = 1.01

[[record]]
sequencecontent = "GGGGGCCACAGCAGAAGCGUUCACGUCGCGACCCCUGUCAGAUUCUGGAGAAUCUGCGAAUUCUGCUGU"
reportedresult = 0.886

